# System Tested: Poly-beta-1,6-N-acetyl-D-glucosamine N-deacetylase (Escherichia coli (strain K12), UniProt P75906)
# Sequence (P75906 whole entry): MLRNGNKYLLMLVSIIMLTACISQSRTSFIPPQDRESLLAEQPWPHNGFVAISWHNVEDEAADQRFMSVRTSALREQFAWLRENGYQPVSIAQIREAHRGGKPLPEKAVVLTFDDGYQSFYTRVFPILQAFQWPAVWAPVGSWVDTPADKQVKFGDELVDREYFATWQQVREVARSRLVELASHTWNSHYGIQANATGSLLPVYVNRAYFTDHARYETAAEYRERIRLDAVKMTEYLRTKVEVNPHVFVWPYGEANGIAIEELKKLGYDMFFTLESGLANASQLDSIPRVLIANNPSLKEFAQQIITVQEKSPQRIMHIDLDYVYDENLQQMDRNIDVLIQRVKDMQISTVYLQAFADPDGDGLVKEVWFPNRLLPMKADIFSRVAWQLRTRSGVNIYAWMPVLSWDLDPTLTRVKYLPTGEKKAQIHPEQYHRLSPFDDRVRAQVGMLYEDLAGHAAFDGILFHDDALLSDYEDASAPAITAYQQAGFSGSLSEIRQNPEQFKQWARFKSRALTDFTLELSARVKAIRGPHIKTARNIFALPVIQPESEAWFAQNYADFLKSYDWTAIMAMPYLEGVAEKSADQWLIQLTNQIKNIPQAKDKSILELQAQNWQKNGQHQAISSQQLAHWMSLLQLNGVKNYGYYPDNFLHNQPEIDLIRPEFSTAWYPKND
# Method Summary: Inhibition of Escherichia coli PgaB expressed in Escherichia coli BL21 (DE3) cells transformed with pET28 plasmid coding for PgaB42-655 using acetoxymethyl-4-methylumbelliferone as substrate measured at 2 min intervals over 10 mins in presence of CoCl2 by fluorescence assay
pIC50: −log10 of the molar value.
Recorded pIC50, one value per entry.

Use the examples below as a reference point.
[
  {
    "Smiles Structure": "CC(=O)N[C@H]1[C@H](OCc2ccccc2)O[C@H](CO)[C@@H](O)[C@@H]1O",
    "pIC50": "< 1.70"
  },
  {
    "Smiles Structure": "NS(=O)(=O)C[C@H]1[C@H](OCc2ccccc2)O[C@H](CO)[C@@H](OCc2ccccc2)[C@@H]1O",
    "pIC50": "< 2.30"
  },
  {
    "Smiles Structure": "CC(=O)N[C@H]1[C@H](OCc2ccccc2)O[C@H](CO)[C@@H](O)[C@@H]1N=[N+]=[N-]",
    "pIC50": "< 2.30"
  }
]

[Q] Supply measured pIC50 of `COP(=O)(O)C[C@H]1[C@H](OCc2ccccc2)O[C@H](CO)[C@@H](O)[C@@H]1O` in your reply.
[A] < 2.00

[Q] Determine from records and report pIC50 for `COP(=O)(O)C[C@H]1[C@H](OCc2ccccc2)O[C@H](CO)[C@@H](OCc2ccccc2)[C@@H]1O`
[A] < 2.30

[Q] Retrieve pIC50 measured for `CC(=S)N[C@H]1[C@H](OCc2ccccc2)O[C@H](CO)[C@@H](O)[C@@H]1O` and print it.
[A] < 2.00

[Q] Entry `COP(=O)(O)C[C@H]1[C@H](OCc2ccccc2)O[C@H](COCc2ccccc2)[C@@H](O)[C@@H]1O` needs its pIC50 filled in; supply it.
[A] < 2.30

[Q] Read off the recorded pIC50 for `NS(=O)(=O)C[C@H]1[C@H](OCc2ccccc2)O[C@H](CO)[C@@H](O)[C@@H]1O`
[A] < 2.00

[Q] Given `CC(=O)N[C@H]1[C@H](OCc2ccccc2)O[C@H](CO)[C@@H](O)[C@@H]1N` , respond with its pIC50.
[A] < 2.00

The measurements presented in this section are drawn from ChEMBL document CHEMBL4261622.
